Molecular target: huCMKLR1 (Homo sapiens)
Sequence (Q99788 whole entry, the tested form may be a part): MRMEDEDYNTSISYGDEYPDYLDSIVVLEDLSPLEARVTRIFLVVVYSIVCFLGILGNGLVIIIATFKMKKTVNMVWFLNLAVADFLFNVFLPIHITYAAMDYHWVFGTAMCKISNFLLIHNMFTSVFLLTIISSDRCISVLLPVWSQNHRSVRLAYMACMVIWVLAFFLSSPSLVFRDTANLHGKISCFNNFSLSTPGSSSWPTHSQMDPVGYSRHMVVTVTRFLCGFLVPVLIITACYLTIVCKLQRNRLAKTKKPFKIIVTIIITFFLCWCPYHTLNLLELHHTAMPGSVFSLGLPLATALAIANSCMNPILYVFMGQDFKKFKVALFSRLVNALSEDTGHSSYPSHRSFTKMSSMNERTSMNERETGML
Test: Inhibition of chemerin-triggered huCMKLR1 association with beta-arrestin2 (PathHunter CHO-K1 enzyme fragment complementation)
Assay type: cell-based
Design: host or cells: CHO-K1
Settings: 100% human serum; huCMKLR1/βARR CHO cells; 7 nM chemerin; read-out: IC50, inhibition of chemerin-triggered huCMKLR1 association with βARR

{"columns": ["item_smiles", "IC50 / nM"],
 "data": [
  ["C[N+](C)(C)CCC(=O)c1cccc2ccccc12.[I-]", 620]
]}

====

Biological target: mouse CMKLR1 (Mus musculus, UniProt P97468)
Construct: expressed in transfected cells; host or cells: L1.2 cells
Sequence (P97468 1-371): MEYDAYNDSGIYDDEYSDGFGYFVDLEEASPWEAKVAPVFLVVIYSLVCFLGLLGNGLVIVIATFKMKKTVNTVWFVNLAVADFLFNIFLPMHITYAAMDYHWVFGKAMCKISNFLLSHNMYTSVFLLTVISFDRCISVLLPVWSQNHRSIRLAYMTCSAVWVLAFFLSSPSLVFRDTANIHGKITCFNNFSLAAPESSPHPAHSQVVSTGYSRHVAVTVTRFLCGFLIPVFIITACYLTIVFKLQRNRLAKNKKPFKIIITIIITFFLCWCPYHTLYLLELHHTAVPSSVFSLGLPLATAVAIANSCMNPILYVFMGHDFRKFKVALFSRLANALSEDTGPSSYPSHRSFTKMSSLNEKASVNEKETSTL
Experiment: Inhibition of chemerin-triggered mouse CMKLR1/L1.2 cell migration
Type: cell-based
Conditions: 0.5% BSA; 1 nM chemerin
measure: IC50 (µM)

{"columns": ["item_smiles", "observed_measurement"],
 "data": [
  ["C[N+](C)(C)CCC(=O)c1cccc2ccccc12.[I-]", 9.6]
]}
